# Experimental System: IDH1 R132C (Homo sapiens (Human), UniProt O75874, R132C)
# Sequence (O75874 whole entry R132C): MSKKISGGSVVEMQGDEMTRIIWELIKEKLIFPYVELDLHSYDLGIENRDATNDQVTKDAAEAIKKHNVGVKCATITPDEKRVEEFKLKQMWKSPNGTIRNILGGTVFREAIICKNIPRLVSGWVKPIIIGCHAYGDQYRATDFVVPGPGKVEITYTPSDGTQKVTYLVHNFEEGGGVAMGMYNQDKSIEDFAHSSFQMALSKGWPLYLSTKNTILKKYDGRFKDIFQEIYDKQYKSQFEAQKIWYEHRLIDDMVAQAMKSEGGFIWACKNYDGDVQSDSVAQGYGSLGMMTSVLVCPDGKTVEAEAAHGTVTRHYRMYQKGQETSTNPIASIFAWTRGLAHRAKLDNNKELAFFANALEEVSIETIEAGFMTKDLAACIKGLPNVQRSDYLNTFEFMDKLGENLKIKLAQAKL
# Method Summary: In vitro NADPH depletion assay for IDH1m R132C inhibitors
# Measurement Setup: IDH1 R132C enzyme, read-out: IDH R132C IC50
pIC50: −log10 of the molar value.
Assay Readout: pIC50

# input Query for IDH1 R132C (Homo sapiens (Human), UniProt O75874, R132C): what pIC50 does the record show for "O=C(NC1CC(F)(F)C1)[C@H](c1ccccc1Cl)N(C(=O)[C@@H]1CCC(=O)N1c1nccc2ccccc12)c1cccc(F)c1" ?
# output 6.30 to 7.00

# input Query for IDH1 R132C (Homo sapiens (Human), UniProt O75874, R132C): what pIC50 does the record show for "O=C(NC1CC(F)(F)C1)[C@H](c1ccccc1Cl)N(C(=O)[C@@H]1CCC(=O)N1c1cccc(F)n1)c1cccc(F)c1" ?
# output 6.30 to 7.00

----------
Can you tell me pIC50 for the items I'm about to list?
# Experimental System: IDH1 R132H (Homo sapiens (Human), UniProt O75874, R132H)
# Sequence (O75874 whole entry R132H): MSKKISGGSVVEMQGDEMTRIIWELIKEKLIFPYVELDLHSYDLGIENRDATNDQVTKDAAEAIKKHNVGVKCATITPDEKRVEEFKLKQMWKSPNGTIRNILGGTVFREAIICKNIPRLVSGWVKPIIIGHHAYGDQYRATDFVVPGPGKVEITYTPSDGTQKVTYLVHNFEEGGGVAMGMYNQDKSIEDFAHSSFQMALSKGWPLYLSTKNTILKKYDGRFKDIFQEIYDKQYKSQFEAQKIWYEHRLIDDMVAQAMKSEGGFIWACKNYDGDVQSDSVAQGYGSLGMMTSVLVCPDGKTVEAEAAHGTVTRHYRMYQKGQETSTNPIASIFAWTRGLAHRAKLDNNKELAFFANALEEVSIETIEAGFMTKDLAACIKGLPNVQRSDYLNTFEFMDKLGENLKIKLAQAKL
# Method Summary: In vitro NADPH depletion assay for IDH1m R132H inhibitors
# Measurement Setup: IDH1 R132H enzyme, read-out: IDH R132H IC50
pIC50: −log10 of the molar value.

# input Query (molecule): "COc1cccnc1N1C(=O)CC[C@H]1C(=O)N(c1cccc(F)c1)[C@H](C(=O)NC1CC(F)(F)C1)c1ccccc1Cl" ; field requested: pIC50
# output 6.30 to 7.00

# input Query (molecule): "O=C(NC1CC(F)(F)C1)[C@H](c1ccccc1Cl)N(C(=O)[C@@H]1CCC(=O)N1c1cccc(F)n1)c1cccc(F)c1" ; field requested: pIC50
# output 6.30 to 7.00

# input Query (molecule): "O=C(NC1CC(F)(F)C1)[C@H](c1ccccc1Cl)N(C(=O)[C@@H]1CCC(=O)N1c1nccc2ccccc12)c1cccc(F)c1" ; field requested: pIC50
# output 6.30 to 7.00

# input Query (molecule): O=C(NC1CC(F)(F)C1)C(c1ccccc1Cl)N(C(=O)[C@@H]1CCC(=O)N1c1cccnc1)c1cccc(F)c1 (stereo partly shown) ; field requested: pIC50
# output 6.30 to 7.00

----------
# System: U87MG cells
# Method Summary: Cellular assay, inhibition of 2-HG production in U87MG cells
# Assay type: cell-based
# Measurement Setup: 48 hours
pIC50: −log10 of the molar value.
Assay Readout: pIC50

# input Query (compound): N#Cc1cccc(N2C(=O)OC[C@H]2C(=O)N(c2cccc3cn[nH]c23)[C@H](C(=O)NC2CCC(F)(F)CC2)c2ccccc2Cl)c1 [Compound 142] ; field requested: pIC50
# output > 7.00
